B1: FAM50A (parent)
chain: HIFPASRWEPYDPEKKWDKYTIR

Variants of: B1
Protocol description: protein stability index of a GFP-peptide fusion (GPS, HEK-293T) (PSI 1-6); higher = more stable;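 further: lentivirally expressed fusions sorted by FACS into six bins by GFP to DsRed ratio, PSI derived from sequencing read proportions per bin multiplied by bin number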
Conditions: c terminus: native
Please enter fulfilled where protein stability index is greater than or equal to 3, and not fulfilled where it is lower.

residue_change=P13T qualitative_label="not fulfilled"
residue_change=P10A qualitative_label="not fulfilled"
residue_change=S6L qualitative_label="not fulfilled"
residue_change=D18Y qualitative_label="not fulfilled"
residue_change=K19G qualitative_label="not fulfilled"
residue_change=E14H qualitative_label="not fulfilled"
residue_change=R23N qualitative_label="not fulfilled"
residue_change=D12V qualitative_label=fulfilled
residue_change=W17T qualitative_label="not fulfilled"
residue_change=Y11Q qualitative_label="not fulfilled"
residue_change=D12T qualitative_label="not fulfilled"
residue_change=A5F qualitative_label="not fulfilled"
residue_change=P4S qualitative_label="not fulfilled"
residue_change=W8S qualitative_label=fulfilled
residue_change=S6V qualitative_label="not fulfilled"
residue_change=T21V qualitative_label="not fulfilled"
residue_change=S6P qualitative_label=fulfilled
residue_change=P10K qualitative_label="not fulfilled"
residue_change=F3Q qualitative_label=fulfilled
residue_change=I22V qualitative_label="not fulfilled"
residue_change=P4T qualitative_label=fulfilled
residue_change=W17V qualitative_label="not fulfilled"
residue_change=E9F qualitative_label="not fulfilled"
